- assaySystem: Phenylalanine--tRNA ligase alpha subunit (Haemophilus influenzae (strain ATCC 51907 / DSM 11121 / KW20 / Rd))
- Sequence (P43819 whole entry): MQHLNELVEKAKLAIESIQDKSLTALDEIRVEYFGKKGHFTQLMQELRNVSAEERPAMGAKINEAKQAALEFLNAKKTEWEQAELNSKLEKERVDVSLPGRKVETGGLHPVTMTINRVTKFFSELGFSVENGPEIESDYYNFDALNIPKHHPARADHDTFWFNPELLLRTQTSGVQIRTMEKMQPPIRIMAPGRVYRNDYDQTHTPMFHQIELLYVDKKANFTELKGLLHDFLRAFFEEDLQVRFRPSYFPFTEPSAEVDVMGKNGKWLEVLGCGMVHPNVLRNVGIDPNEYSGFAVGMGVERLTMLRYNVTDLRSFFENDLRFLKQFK
- methodSummary: Inhibitory concentration against Haemophilus influenzae Phenylalanyl-tRNA synthetase
measuredParameter: IC50 (nM)
A number alone suffices; assume nM.

So, `OCCOc1ccccc1CNC[C@@H](O)c1cc(Br)cs1` ? Its IC50 was 56

So, OC(CNCc1ccccc1OCc1nc2ccccc2[nH]1)c1cc(Br)cs1 (centres undefined) ? Its IC50 was 150

So, OC(CNCc1ccccc1OCc1ccccc1)c1cc(Br)cs1 (centres undefined) ? Its IC50 was 1500

----------
- assaySystem: Phenylalanine--tRNA ligase alpha subunit (Staphylococcus aureus, UniProt P68849)
- Sequence (P68849 whole entry): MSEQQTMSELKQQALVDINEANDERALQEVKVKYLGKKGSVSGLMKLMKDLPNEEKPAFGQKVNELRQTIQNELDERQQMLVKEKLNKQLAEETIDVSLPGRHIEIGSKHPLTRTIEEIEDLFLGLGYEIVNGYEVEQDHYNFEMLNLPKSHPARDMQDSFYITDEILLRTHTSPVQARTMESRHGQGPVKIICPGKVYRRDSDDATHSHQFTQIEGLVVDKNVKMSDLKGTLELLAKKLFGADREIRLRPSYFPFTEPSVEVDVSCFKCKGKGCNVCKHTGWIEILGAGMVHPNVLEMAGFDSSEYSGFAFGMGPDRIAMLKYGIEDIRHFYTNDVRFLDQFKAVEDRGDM
- methodSummary: Inhibitory concentration against […] Phenylalanyl-tRNA synthetase
measuredParameter: IC50 (nM)
A number alone suffices; assume nM.

Reported Phenylalanine--tRNA ligase alpha subunit (Staphylococcus aureus, UniProt P68849) IC50 for item OC(CNCc1ccccc1)c1cccc(C(F)(F)F)c1 (stereo unspecified) was 160

----------
- assaySystem: Phenylalanine--tRNA ligase alpha subunit (Staphylococcus aureus, UniProt P68849)
- methodSummary: Inhibitory concentration against Staphylococcus aureus Phenylalanyl-tRNA synthetase
Task for the reader: assign each of the following compounds its reported pIC50.
Worth noting: pIC50 values are minus log10 of concentrations stated in mol/L.

Reported Phenylalanine--tRNA ligase alpha subunit (Staphylococcus aureus, UniProt P68849) pIC50 for item COc1ccccc1CNCC(O)c1cccc(C(F)(F)F)c1 (centres undefined) was 6.80

Reported Phenylalanine--tRNA ligase alpha subunit (Staphylococcus aureus, UniProt P68849) pIC50 for item CNC(=O)CNC(=O)COc1ccccc1CNCC(O)c1cc(Br)cs1 (centres undefined) was 6.92

Reported Phenylalanine--tRNA ligase alpha subunit (Staphylococcus aureus, UniProt P68849) pIC50 for item Oc1ccccc1CNCC(O)c1cccc(C(F)(F)F)c1 (centres undefined) was 7.00

Reported Phenylalanine--tRNA ligase alpha subunit (Staphylococcus aureus, UniProt P68849) pIC50 for item CN(CCO)C(=O)COc1ccccc1CNCC(O)c1cc(Br)cs1 (centres undefined) was 6.96

Reported Phenylalanine--tRNA ligase alpha subunit (Staphylococcus aureus, UniProt P68849) pIC50 for item O=C1c2ccccc2C(=O)N1CCCCOc1ccccc1CNCC(O)c1cc(Br)cs1 (centres undefined) was 7.16

Reported Phenylalanine--tRNA ligase alpha subunit (Staphylococcus aureus, UniProt P68849) pIC50 for item OCc1cccc(C(O)CNCc2ccccc2OCc2ccccc2)c1 (centres undefined) was 6.24

Reported Phenylalanine--tRNA ligase alpha subunit (Staphylococcus aureus, UniProt P68849) pIC50 for item NC(=O)COc1ccccc1CNCC(O)c1cc(Br)cs1 (centres undefined) was 7.38

Reported Phenylalanine--tRNA ligase alpha subunit (Staphylococcus aureus, UniProt P68849) pIC50 for item O=C(O)c1ccccc1CNCC(O)c1cccc(C(F)(F)F)c1 (centres undefined) was 5.60

Reported Phenylalanine--tRNA ligase alpha subunit (Staphylococcus aureus, UniProt P68849) pIC50 for item NCCCCOc1ccccc1CNCC(O)c1cc(Br)cs1 (centres undefined) was 7.66

Reported Phenylalanine--tRNA ligase alpha subunit (Staphylococcus aureus, UniProt P68849) pIC50 for item OC(CNCc1ccccc1Oc1ccccc1)c1cc(Br)cs1 (centres undefined) was 6.92

Reported Phenylalanine--tRNA ligase alpha subunit (Staphylococcus aureus, UniProt P68849) pIC50 for item CNC(=O)CNC(=O)CCOc1ccccc1CNCC(O)c1cc(Br)cs1 (centres undefined) was 7.44

Reported Phenylalanine--tRNA ligase alpha subunit (Staphylococcus aureus, UniProt P68849) pIC50 for item OC(CNCc1ccccc1OCc1ccccn1)c1cc(Br)cs1 (centres undefined) was 7.37

Reported Phenylalanine--tRNA ligase alpha subunit (Staphylococcus aureus, UniProt P68849) pIC50 for item C=CCOc1ccccc1CNCC(O)c1cc(Br)cs1 (centres undefined) was 7.74

Reported Phenylalanine--tRNA ligase alpha subunit (Staphylococcus aureus, UniProt P68849) pIC50 for item OC(CNCc1ccccc1OCc1ccccc1)c1cccc(C(F)(F)F)c1 (centres undefined) was 7.30

Reported Phenylalanine--tRNA ligase alpha subunit (Staphylococcus aureus, UniProt P68849) pIC50 for item OC(CNCc1ccccc1OCc1ccncc1)c1cc(Br)cs1 (centres undefined) was 7.80

Reported Phenylalanine--tRNA ligase alpha subunit (Staphylococcus aureus, UniProt P68849) pIC50 for item CNC(=O)CNC(=O)CCCOc1ccccc1CNCC(O)c1cc(Br)cs1 (centres undefined) was 7.52

Reported Phenylalanine--tRNA ligase alpha subunit (Staphylococcus aureus, UniProt P68849) pIC50 for item O=C(O)CCCOc1ccccc1CNCC(O)c1cc(Br)cs1 (centres undefined) was 7.37

Reported Phenylalanine--tRNA ligase alpha subunit (Staphylococcus aureus, UniProt P68849) pIC50 for item O=C1c2ccccc2C(=O)N1CCOc1ccccc1CNCC(O)c1cc(Br)cs1 (centres undefined) was 6.60

Reported Phenylalanine--tRNA ligase alpha subunit (Staphylococcus aureus, UniProt P68849) pIC50 for item C=CCOc1ccccc1CNCC(O)c1cccc(C(F)(F)F)c1 (centres undefined) was 7.24

Reported Phenylalanine--tRNA ligase alpha subunit (Staphylococcus aureus, UniProt P68849) pIC50 for item COc1ccccc1CNCC(O)c1cccc(C)c1 (centres undefined) was 6.96

Reported Phenylalanine--tRNA ligase alpha subunit (Staphylococcus aureus, UniProt P68849) pIC50 for item OC(CNCc1ccccc1OCc1cccnc1)c1cc(Br)cs1 (centres undefined) was 7.74

Reported Phenylalanine--tRNA ligase alpha subunit (Staphylococcus aureus, UniProt P68849) pIC50 for item COc1cccc(C(O)CNCc2ccccc2OCc2ccccc2)c1 (centres undefined) was 7.08

Reported Phenylalanine--tRNA ligase alpha subunit (Staphylococcus aureus, UniProt P68849) pIC50 for item OC(CNCc1ccccc1OCc1ccccc1)c1cccc(Cl)c1 (centres undefined) was 7.51

Reported Phenylalanine--tRNA ligase alpha subunit (Staphylococcus aureus, UniProt P68849) pIC50 for item COc1ccccc1CNCC(O)c1cccc(OC(F)(F)F)c1 (centres undefined) was 6.72

Reported Phenylalanine--tRNA ligase alpha subunit (Staphylococcus aureus, UniProt P68849) pIC50 for item COCOc1ccccc1CNCC(O)c1cc(Br)cs1 (centres undefined) was 7.46

Reported Phenylalanine--tRNA ligase alpha subunit (Staphylococcus aureus, UniProt P68849) pIC50 for item OC(CNCc1ccccc1)c1cccc(C(F)(F)F)c1 (centres undefined) was 6.80

Reported Phenylalanine--tRNA ligase alpha subunit (Staphylococcus aureus, UniProt P68849) pIC50 for item OC(CNCc1ccccc1OCc1ccccc1)c1cccc(I)c1 (centres undefined) was 7.49

Reported Phenylalanine--tRNA ligase alpha subunit (Staphylococcus aureus, UniProt P68849) pIC50 for item OC(CNCc1ccccc1OCc1ccccc1)c1cc(Br)cs1 (centres undefined) was 8.00

Reported Phenylalanine--tRNA ligase alpha subunit (Staphylococcus aureus, UniProt P68849) pIC50 for item OC(CNCc1ccccc1OCc1nc2ccccc2[nH]1)c1cc(Br)cs1 (centres undefined) was 7.59

Reported Phenylalanine--tRNA ligase alpha subunit (Staphylococcus aureus, UniProt P68849) pIC50 for item OC(CNCc1ccccc1OC(F)F)c1cccc(C(F)(F)F)c1 (centres undefined) was 6.59

Reported Phenylalanine--tRNA ligase alpha subunit (Staphylococcus aureus, UniProt P68849) pIC50 for item Cc1ccccc1CNCC(O)c1cccc(C(F)(F)F)c1 (centres undefined) was 6.10

Reported Phenylalanine--tRNA ligase alpha subunit (Staphylococcus aureus, UniProt P68849) pIC50 for item OCCOc1ccccc1CNCC(O)c1cc(Br)cs1 (centres undefined) was 8.10

Reported Phenylalanine--tRNA ligase alpha subunit (Staphylococcus aureus, UniProt P68849) pIC50 for item COc1ccccc1CNCC(O)c1cc(Br)cs1 (centres undefined) was 7.30

Reported Phenylalanine--tRNA ligase alpha subunit (Staphylococcus aureus, UniProt P68849) pIC50 for item `OCCOc1ccccc1CNC[C@@H](O)c1cc(Br)cs1` was 8.43

Reported Phenylalanine--tRNA ligase alpha subunit (Staphylococcus aureus, UniProt P68849) pIC50 for item N#CCOc1ccccc1CNCC(O)c1cc(Br)cs1 (centres undefined) was 7.31

Reported Phenylalanine--tRNA ligase alpha subunit (Staphylococcus aureus, UniProt P68849) pIC50 for item OC(CNCc1ccccc1OCCN1CCOCC1)c1cc(Br)cs1 (centres undefined) was 7.74

Reported Phenylalanine--tRNA ligase alpha subunit (Staphylococcus aureus, UniProt P68849) pIC50 for item COc1ccccc1CNCC(O)c1cccc(Br)c1 (centres undefined) was 6.96

Reported Phenylalanine--tRNA ligase alpha subunit (Staphylococcus aureus, UniProt P68849) pIC50 for item CN(CCO)C(=O)CCCOc1ccccc1CNCC(O)c1cc(Br)cs1 (centres undefined) was 7.59

Reported Phenylalanine--tRNA ligase alpha subunit (Staphylococcus aureus, UniProt P68849) pIC50 for item CCNC(=O)COc1ccccc1CNCC(O)c1cc(Br)cs1 (centres undefined) was 7.49

Reported Phenylalanine--tRNA ligase alpha subunit (Staphylococcus aureus, UniProt P68849) pIC50 for item CS(=O)(=O)c1ccc(COc2ccccc2CNCC(O)c2cc(Br)cs2)cc1 (centres undefined) was 7.59

Reported Phenylalanine--tRNA ligase alpha subunit (Staphylococcus aureus, UniProt P68849) pIC50 for item NCCOc1ccccc1CNCC(O)c1cc(Br)cs1 (centres undefined) was 6.66

Reported Phenylalanine--tRNA ligase alpha subunit (Staphylococcus aureus, UniProt P68849) pIC50 for item CN(CCO)C(=O)CCOc1ccccc1CNCC(O)c1cc(Br)cs1 (centres undefined) was 7.60

Reported Phenylalanine--tRNA ligase alpha subunit (Staphylococcus aureus, UniProt P68849) pIC50 for item O=C(O)CCOc1ccccc1CNCC(O)c1cc(Br)cs1 (centres undefined) was 7.24

Every entry's value here was drawn from ChEMBL document CHEMBL1144382.
